// provenance: patent US20260125375A1

Reported Kd is given for each of the following compounds.
Molecular target: C-CBL (46-435) (Homo sapiens, UniProt P22681)
Construct: N-terminal biotinylated WT CBL-B (36-427) and C-CBL (46-435) were captured on a streptavidin (SA) coated sensor chip
Assay: Surface Plasmon Resonance (SPR) assay, binding affinity and kinetics, C-CBL
Details: SPR at 10° C., biotinylated C-CBL (46-435) on streptavidin chip; geometric mean; read-out: C-CBL SPR Kd (nM) GMean

COMPOUND	SYSTEM	Kd, nM
CN[C@@H](C)c1nc(C(F)(F)F)cc2c(-c3cccc(C4(Cc5nncn5C)COC4)c3)n[nH]c12 (single isomer, unassigned) [Example D37]	C-CBL (46-435) (Homo sapiens, UniProt P22681)	68.6
C[C@H](c1nc(C(F)(F)F)cc2c(-c3cccc([C@H](c4nncn4C)C4CCC4)c3)n[nH]c12)N1CCNC(=O)C1 (single isomer, unassigned) [Example D89]	C-CBL (46-435) (Homo sapiens, UniProt P22681)	307
C[C@@H](NC1CCC1)c1nc(C(F)(F)F)cc2c(-c3cccc(C4(Cc5nncn5C)COC4)c3)n[nH]c12 [Example C16]	C-CBL (46-435) (Homo sapiens, UniProt P22681)	83.4
CC(=O)NCC(C)c1nc(C(F)(F)F)cc2c(-c3cccc([C@H](c4nncn4C)C4CCC4)c3)n[nH]c12 (single isomer, unassigned) [Example M4]	C-CBL (46-435) (Homo sapiens, UniProt P22681)	250
C[C@@H](N)c1nc(C(F)(F)F)cc2c(-c3cccc([C@H](c4nncn4C)C4CCC4)c3)n[nH]c12 [Example K13]	C-CBL (46-435) (Homo sapiens, UniProt P22681)	285
C[C@H](c1nc(C(F)(F)F)cc2c(-c3cccc(C4(Cc5nncn5C)COC4)c3)n[nH]c12)N1C[C@@H](F)[C@H](F)C1 (single isomer, unassigned) [Example C26]	C-CBL (46-435) (Homo sapiens, UniProt P22681)	183

* * *

Reported EC50 is given for each of the following molecules.
Target: CBL-B (Homo sapiens, UniProt Q13191)
Construct: endogenous in cells; host or cells: Jurkat HiBit-IL2 reporter cells, C-CBL knocked out by CRISPR
Assay: Jurkat HiBit-IL2 assay (c-CBL KO), reporter cell line expressing CBL-B only
Assay type: cell-based
Settings: c-CBL KO (CBL-B only), anti-CD3/anti-CD28 stimulation 4 hours, geometric mean, Table 16a, read-out: C-CBL KO EC50 (nM) GMean
PROPERTY MEASURED: EC50

MOLECULE	ASSAY VALUE
C[C@H](NC1CC[C@H]1O)c1nc(C(F)(F)F)cc2c(-c3cccc([C@H](c4nncn4C)C4CCC4)c3)n[nH]c12 (single isomer, unassigned)	3 nM
C[C@H](N[C@H]1CCC[C@@H]1O)c1nc(C(F)(F)F)cc2c(-c3cccc([C@H](c4nncn4C)C4CCC4)c3)n[nH]c12 (single isomer, unassigned)	5 nM
C[C@@H](N[C@@H]1CC[C@@H]1O)c1nc(C(F)(F)F)cc2c(-c3cccc([C@H](c4nncn4C)C4CCC4)c3)n[nH]c12 (single isomer, unassigned)	11 nM

* * *

Target: C-CBL (Homo sapiens)
Construct: endogenous in cells; host or cells: Jurkat HiBit-IL2 reporter cells, CBL-B knocked out by CRISPR
Test: Jurkat HiBit-IL2 assay (CBL-B KO), reporter cell line expressing C-CBL only
Assay type: cell-based
Conditions: CBL-B KO (C-CBL only), anti-CD3/anti-CD28 stimulation 4 hours, geometric mean, Table 16a, read-out: CBL-B KO EC50 (nM) GMean
Binary label based on EC50 with cut-off 600 nM: below gives 1 (yes), not below gives 0 (no).

MOLECULE	QUALITATIVE LABEL
C[C@@H](NC1CC[C@H]1O)c1nc(C(F)(F)F)cc2c(-c3cccc([C@H](c4nncn4C)C4CCC4)c3)n[nH]c12 (single isomer, unassigned) [Example D31]	1 (yes)
C[C@H](NC[C@@H](C)O)c1nc(C(F)(F)F)cc2c(-c3cccc([C@H](c4nncn4C)C4CCC4)c3)n[nH]c12 (single isomer, unassigned) [Example D25]	1 (yes)
C[C@H](NC(C)(C)CO)c1nc(C(F)(F)F)cc2c(-c3cccc([C@H](c4nncn4C)C4CCC4)c3)n[nH]c12 (single isomer, unassigned) [Example D17]	1 (yes)
Cn1cnnc1[C@@H](c1cccc(-c2n[nH]c3c(CNC4CCCC4)nc(C(F)(F)F)cc23)c1)C1CCC1 [Example D4]	1 (yes)
CC(NCCO)c1nc(C(F)(F)F)cc2c(-c3cccc([C@H](c4nncn4C)C4CCCCC4)c3)n[nH]c12 (single isomer, unassigned) [Example C39]	1 (yes)
CC1CN(Cc2nc(C(F)(F)F)cc3c(-c4cccc(C5(Cc6nncn6C)COC5)c4)n[nH]c23)CCC1(F)F (single isomer, unassigned) [Example C32]	0 (no)
C[C@@H](NC1CCC1)c1nc(C(F)(F)F)cc2c(-c3cccc(C4(Cc5nncn5C)COC4)c3)n[nH]c12 [Example C16]	0 (no)
C[C@H](c1nc(C(F)(F)F)cc2c(-c3cccc(C4(Cc5nncn5C)COC4)c3)n[nH]c12)N1C[C@@H](F)[C@H](F)C1 (single isomer, unassigned) [Example C26]	0 (no)
C[C@@H]1CCCN([C@H](C)c2nc(C(F)(F)F)cc3c(-c4cccc(C5(Cc6nncn6C)COC5)c4)n[nH]c23)C1 (single isomer, unassigned) [Example D14]	0 (no)
C[C@H](N[C@@H]1CCC[C@@H]1O)c1nc(C(F)(F)F)cc2c(-c3cccc([C@H](c4nncn4C)C4CCC4)c3)n[nH]c12 (single isomer, unassigned) [Example D15]	1 (yes)
C[C@@H](NC1CCCC1)c1nc(C(F)(F)F)cc2c(-c3cccc(C4(Cc5nncn5C)COC4)c3)n[nH]c12 (single isomer, unassigned) [Example C15]	1 (yes)
Cn1cnnc1[C@@H](c1cccc(-c2n[nH]c3c(CN[C@@H]4CCC(F)(F)C4)nc(C(F)(F)F)cc23)c1)C1CCC1 [Example C5]	0 (no)
C[C@H](CO)N[C@@H](C)c1nc(C(F)(F)F)cc2c(-c3cccc([C@H](c4nncn4C)C4CCC4)c3)n[nH]c12 (single isomer, unassigned) [Example C43]	0 (no)
Cn1cnnc1[C@@H](c1cccc(-c2n[nH]c3c(CN[C@@H]4CCC[C@@H]4O)nc(C(F)(F)F)cc23)c1)C1CCC1 [Example C1]	1 (yes)
C[C@H](NC1CCC1)c1nc(C(F)(F)F)cc2c(-c3cccc(C4(Cc5nncn5C)COC4)c3)n[nH]c12 [Example F1]	1 (yes)
CC(NC1CCCC1)c1nc(C(F)(F)F)cc2c(-c3cccc([C@H](c4nncn4C)C4CCC4)c3)n[nH]c12 (some centres unmarked) [Example C14]	1 (yes)
C[C@H](N[C@H]1C[C@@H](O)C1)c1nc(C(F)(F)F)cc2c(-c3cccc([C@H](c4nncn4C)C4CCC4)c3)n[nH]c12 (single isomer, unassigned) [Example C36]	1 (yes)
C[C@H](O)CN[C@@H](C)c1nc(C(F)(F)F)cc2c(-c3cccc([C@H](c4nncn4C)C4CCC4)c3)n[nH]c12 (single isomer, unassigned) [Example D19]	1 (yes)
CC(NCCO)c1nc(C(F)(F)F)cc2c(-c3cccc([C@H](c4nncn4C)C4CCC4)c3)n[nH]c12 (single isomer, unassigned) [Example C42]	1 (yes)
CC(NC1CCC1)c1nc(C2CC2)cc2c(-c3cccc(C4(Cc5nncn5C)COC4)c3)n[nH]c12 (single isomer, unassigned) [Example H3]	1 (yes)
CC(c1nc(C(F)(F)F)cc2c(-c3cccc(C4(Cc5nncn5C)COC4)c3)n[nH]c12)N1CCCCC1 (single isomer, unassigned) [Example C21]	0 (no)
C[C@@H](c1nc(C(F)(F)F)cc2c(-c3cccc(C4(Cc5nncn5C)COC4)c3)n[nH]c12)N1CC[C@@H](F)C1 (single isomer, unassigned) [Example D9]	0 (no)

* * *

Reported log10 Ki is given for each of the following compounds.
Biological target: CBL-B (residues 36-427) (Homo sapiens)
Construct: Purified CBL-B (residues 36-427) and C-CBL (residues 46-435) proteins from baculovirus-infected insect cells; made in house; host or cells: baculovirus-infected insect cells
Test: Ligand Displacement Assay (LDA), HTRF competitive binding against BODIPY-labeled fluorescent tracer, CBL-B
Settings: geometric mean of the number of tests, read-out: CBL-B Ki (nM) GMean
PROPERTY MEASURED: log10 Ki (log10 of the value in nM)

COMPOUND	ASSAY VALUE
C[C@H](c1nc(C(F)(F)F)cc2c(-c3cccc(C4(Cc5nncn5C)COC4)c3)n[nH]c12)N1CCCC1 (single isomer, unassigned)	1.21
Cn1cnnc1[C@@H](c1cccc(-c2n[nH]c3c(CN4C[C@H](O)[C@@H](O)C4)nc(C(F)(F)F)cc23)c1)C1CCC1	0.52
Cn1cnnc1[C@@H](c1cccc(-c2n[nH]c3cnc(C(F)(F)F)cc23)c1)C1CCC1	1.87
CC(N[C@H]1CCC[C@@H]1O)c1nc(C(F)(F)F)cc2c(-c3cccc([C@H](c4nncn4C)C4CCCCC4)c3)n[nH]c12 (single isomer, unassigned) [Example C102]	1.03
C[C@H](N[C@@H]1CC[C@H](O)C1)c1nc(C(F)(F)F)cc2c(-c3cccc([C@H](c4nncn4C)C4CCC4)c3)n[nH]c12	0.32
Cn1cnnc1[C@@H](c1cccc(-c2n[nH]c3c(CN[C@@H]4CCC[C@H]4O)nc(C(F)(F)F)cc23)c1)C1CCC1	1.28
